Test system: NCI-H1915
Assay: relative viability (nuclei count vs DMSO), 5 days (fraction); higher = more cells survive
Conditions: first compound 0.1265 µM
Each entry below carries its reported relative viability.
Could you keep your reply to the number by itself?

Input COc1cc(N2CCC(C(N)=O)CC2)ccc1Nc1nc(N)c(Cl)c(Nc2ccccc2S(=O)(=O)C(C)C)n1 [HG-5-88-01] + Nc1ncn([C@H]2C[C@H](O)[C@@H](CO)O2)c(=O)n1 [Decitabine] (partner 2 µM) , output reported relative viability.
0.279

Input COc1cc(N2CCC(C(N)=O)CC2)ccc1Nc1nc(N)c(Cl)c(Nc2ccccc2S(=O)(=O)C(C)C)n1 [HG-5-88-01] + NC(=O)Nc1cc(-c2cccc(F)c2)sc1C(=O)N[C@H]1CCCNC1 [AZD7762] (partner 0.2 µM) , output reported relative viability.
0.697

Input Clc1ccc(Nc2nnc(Cc3ccncc3)c3ccccc23)cc1 [Vatalanib] + NC(=O)Nc1cc(-c2cccc(F)c2)sc1C(=O)N[C@H]1CCCNC1 [AZD7762] (partner 0.2 µM) , output reported relative viability.
0.665
